System: SH-SY5Y nerve cells
ASSAY NOTES: Neuroprotection in SH-SY5Y cell damage model induced by L-glutamic acid (MTT)
Format: cell-based
TEST CONDITIONS: drug 10^−6 moL/L, L-glutamic acid 160 mM, 24 h, effective rate %
Give Neuroprotective effective rate (recovery of viability relative to glutamate model) for every item shown.
Give the value in % but do not write % after it.

[in] Provide value of Neuroprotective effective rate (recovery of viability relative to glutamate model) for this record tested with SH-SY5Y nerve cells: CC(/C=C/C=C(\C)C(=O)O)=C\C=C\C=C(C)\C=C\C=C(/C)C(=O)O[C@@H]1OC(CO)[C@@H](O)C(O)C1O (stereo partly drawn) [Compound 9, crocetin mono-β-D-glucopyranoside]
[out] 0.00

[in] Provide value of Neuroprotective effective rate (recovery of viability relative to glutamate model) for this record tested with SH-SY5Y nerve cells: CC(/C=C/C=C(\C)C(=O)O[C@@H]1O[C@H](CO[C@@H]2O[C@H](CO)[C@@H](O)[C@H](O)[C@H]2O)[C@@H](O)[C@H](O)[C@H]1O)=C\C=C\C=C(C)\C=C\C=C(/C)C(=O)O[C@@H]1[C@H](O)C[C@@](O)(C(=O)O)C[C@H]1OC(=O)/C=C/c1ccc(O)c(O)c1
[out] 27.63

[in] Provide value of Neuroprotective effective rate (recovery of viability relative to glutamate model) for this record tested with SH-SY5Y nerve cells: CC(/C=C/C=C(\C)C(=O)O[C@@H]1OC(CO)[C@@H](O)C(O)C1O)=C\C=C\C=C(C)\C=C\C=C(/C)C(=O)O[C@@H]1OC(CO[C@@H]2OC(CO)[C@@H](O)C(O)C2O)[C@@H](O)C(O)C1O (stereo partly shown)
[out] 0.00

[in] Provide value of Neuroprotective effective rate (recovery of viability relative to glutamate model) for this record tested with SH-SY5Y nerve cells: CC(/C=C/C=C(\C)C(=O)O[C@@H]1OC(CO)[C@@H](O)C(O)C1O)=C\C=C\C=C(C)\C=C\C=C(/C)C(=O)O[C@@H]1OC(CO)[C@@H](O)C(O)C1O (stereo partly drawn) [Compound 3, crocetin di-β-D-glucopyranoside]
[out] 0.00
